src = ChEMBL document CHEMBL5291721

# collection of AC50 values tested on Alpha-2B adrenergic receptor (Homo sapiens, UniProt P18089); further: assay procedure not described here
# Sequence (P18089 whole entry): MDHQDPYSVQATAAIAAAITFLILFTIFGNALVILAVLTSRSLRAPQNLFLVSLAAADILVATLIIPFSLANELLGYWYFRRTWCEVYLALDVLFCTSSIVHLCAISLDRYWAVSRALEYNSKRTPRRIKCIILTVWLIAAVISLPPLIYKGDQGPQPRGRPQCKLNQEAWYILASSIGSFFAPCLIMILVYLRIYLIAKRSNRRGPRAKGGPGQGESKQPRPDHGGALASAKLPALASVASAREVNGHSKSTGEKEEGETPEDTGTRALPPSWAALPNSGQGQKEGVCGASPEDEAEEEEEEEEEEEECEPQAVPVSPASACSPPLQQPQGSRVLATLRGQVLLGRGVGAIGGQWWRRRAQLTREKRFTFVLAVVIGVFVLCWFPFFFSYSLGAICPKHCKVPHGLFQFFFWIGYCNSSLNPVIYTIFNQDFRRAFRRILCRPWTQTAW

Problem: Provide value of AC50 for this record tested with Alpha-2B adrenergic receptor (Homo sapiens, UniProt P18089): CN(C)CC/C=C1\c2ccccc2CSc2ccccc21 [DOTHIEPIN]
Result: 1.3 µM

Problem: Provide value of AC50 for this record tested with Alpha-2B adrenergic receptor (Homo sapiens, UniProt P18089): CCOC(=O)[C@H](CCc1ccccc1)N[C@@H](C)C(=O)N1C(=O)N(C)C[C@H]1C(=O)O
Result: > 30 µM

Problem: Provide value of AC50 for this record tested with Alpha-2B adrenergic receptor (Homo sapiens, UniProt P18089): CCCC(C)C1(CC)C(=O)NC(=O)NC1=O (centres undefined)
Result: > 30 µM

Problem: Provide value of AC50 for this record tested with Alpha-2B adrenergic receptor (Homo sapiens, UniProt P18089): O=C1Nc2ccc(Cl)cc2[C@@](C#CC2CC2)(C(F)(F)F)O1
Result: > 30 µM

Problem: Provide value of AC50 for this record tested with Alpha-2B adrenergic receptor (Homo sapiens, UniProt P18089): CC(C)C(=O)c1c(C(C)C)nn2ccccc12
Result: > 30 µM

Problem: Provide value of AC50 for this record tested with Alpha-2B adrenergic receptor (Homo sapiens, UniProt P18089): CC[C@@H]1C(=O)OC[C@@H]1Cc1cncn1C
Result: > 10 µM

Problem: Provide value of AC50 for this record tested with Alpha-2B adrenergic receptor (Homo sapiens, UniProt P18089): Fc1ccc(C(c2ccccc2)(c2ccccc2F)n2ccnc2)cc1 (centres undefined)
Result: > 30 µM

Problem: Provide value of AC50 for this record tested with Alpha-2B adrenergic receptor (Homo sapiens, UniProt P18089): CCCC(=O)O[C@]1(C(=O)CO)CC[C@H]2[C@@H]3CCC4=CC(=O)CC[C@]4(C)[C@H]3[C@@H](O)C[C@@]21C [HYDROCORTISONE BUTYRATE]
Result: > 10 µM

Problem: Provide value of AC50 for this record tested with Alpha-2B adrenergic receptor (Homo sapiens, UniProt P18089): Cc1nnc2n1-c1ccc(Cl)cc1C(c1ccccc1Cl)=NC2
Result: > 10 µM

---

# study.system: UniProt:P08908
# Sequence (P08908 whole entry): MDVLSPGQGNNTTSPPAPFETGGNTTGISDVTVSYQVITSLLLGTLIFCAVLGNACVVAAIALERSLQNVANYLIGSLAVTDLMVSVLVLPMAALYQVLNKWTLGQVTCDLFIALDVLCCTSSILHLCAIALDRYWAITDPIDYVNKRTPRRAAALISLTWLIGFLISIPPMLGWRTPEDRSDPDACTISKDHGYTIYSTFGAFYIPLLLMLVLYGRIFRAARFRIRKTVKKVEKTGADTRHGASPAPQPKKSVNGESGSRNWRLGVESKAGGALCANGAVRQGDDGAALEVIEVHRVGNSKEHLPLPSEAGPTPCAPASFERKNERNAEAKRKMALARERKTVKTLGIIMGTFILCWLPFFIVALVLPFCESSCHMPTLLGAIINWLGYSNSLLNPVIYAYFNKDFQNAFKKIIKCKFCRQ
# Type: functional, cell-based
Parameter AC50: see the listing below.

Solved cases below.
molecule: COc1ccc(C(=O)Nc2ccccc2CCC2CCCCN2C)cc1 (stereo not drawn) [ENCAINIDE]
reading: > 10 µM
--
molecule: CC/C(=C(\c1ccccc1)c1ccc(OCCN(C)C)cc1)c1ccccc1 [TAMOXIFEN]
reading: > 10 µM
--
molecule: Cc1ccc(-n2nccn2)c(C(=O)N2CCN(c3nc4cc(Cl)ccc4o3)CC[C@H]2C)c1 [SUVOREXANT]
reading: > 30 µM
--
molecule: C[C@H](CSC(=O)c1ccccc1)C(=O)N1C[C@@H](Sc2ccccc2)C[C@H]1C(=O)O [ZOFENOPRIL]
reading: > 10 µM
--
molecule: CCCC(C)C1(CC)C(=O)NC(=O)NC1=O (stereo not drawn) [PENTOBARBITAL]
reading: > 10 µM

Problem: Entry under review: CCN1CCN(C(=O)N[C@@H](C(=O)N[C@@H]2C(=O)N3C(C(=O)O)=C(CSc4nnnn4C)CS[C@H]23)c2ccc(O)cc2)C(=O)C1=O [CEFOPERAZONE] . Reported AC50?
Result: > 30 µM

Problem: Entry under review: O=C1C(O)=C([C@H]2CC[C@H](c3ccc(Cl)cc3)CC2)C(=O)c2ccccc21 [ATOVAQUONE] . Reported AC50?
Result: > 30 µM

Problem: Entry under review: C[C@H]1CNCCc2ccc(Cl)cc21 [LORCASERIN] . Reported AC50?
Result: 4.4 µM

---

Parameter AC50: see the listing below.
# study.system: 5-hydroxytryptamine receptor 3A (Homo sapiens, UniProt P46098); further: assay procedure not described here
# Sequence (P46098 whole entry): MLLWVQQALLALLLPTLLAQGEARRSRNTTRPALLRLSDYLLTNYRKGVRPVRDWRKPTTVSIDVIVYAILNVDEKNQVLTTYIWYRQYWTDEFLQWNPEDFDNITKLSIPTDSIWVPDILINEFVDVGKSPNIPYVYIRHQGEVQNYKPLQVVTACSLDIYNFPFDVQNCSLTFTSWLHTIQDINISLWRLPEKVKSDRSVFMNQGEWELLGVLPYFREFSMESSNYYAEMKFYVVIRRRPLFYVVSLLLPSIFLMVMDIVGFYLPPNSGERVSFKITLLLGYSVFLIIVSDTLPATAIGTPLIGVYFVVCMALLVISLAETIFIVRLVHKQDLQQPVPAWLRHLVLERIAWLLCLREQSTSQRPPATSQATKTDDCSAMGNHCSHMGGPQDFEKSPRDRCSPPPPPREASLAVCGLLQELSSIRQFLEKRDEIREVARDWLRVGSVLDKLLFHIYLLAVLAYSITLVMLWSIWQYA
# Format: functional

Problem: Provide value of AC50 for this record tested with 5-hydroxytryptamine receptor 3A (Homo sapiens, UniProt P46098): CN(C)CCc1c[nH]c2ccc(C[C@H]3COC(=O)N3)cc12
Result: > 30 µM

Problem: Provide value of AC50 for this record tested with 5-hydroxytryptamine receptor 3A (Homo sapiens, UniProt P46098): C[C@](N)(Cc1ccc(O)c(O)c1)C(=O)O
Result: > 30 µM

Problem: Provide value of AC50 for this record tested with 5-hydroxytryptamine receptor 3A (Homo sapiens, UniProt P46098): CC[C@H]1CN2CCc3cc(OC)c(OC)cc3[C@@H]2C[C@@H]1C[C@H]1NCCc2cc(OC)c(OC)cc21
Result: > 30 µM

Problem: Provide value of AC50 for this record tested with 5-hydroxytryptamine receptor 3A (Homo sapiens, UniProt P46098): COc1ccc2c3c1O[C@H]1[C@@H](O)C=C[C@H]4[C@@H](C2)N(C)CC[C@@]341
Result: > 10 µM

---

# collection of AC50 values tested on Vasopressin V2 receptor (Homo sapiens, UniProt P30518); further: assay procedure not described here
# Sequence (P30518 whole entry): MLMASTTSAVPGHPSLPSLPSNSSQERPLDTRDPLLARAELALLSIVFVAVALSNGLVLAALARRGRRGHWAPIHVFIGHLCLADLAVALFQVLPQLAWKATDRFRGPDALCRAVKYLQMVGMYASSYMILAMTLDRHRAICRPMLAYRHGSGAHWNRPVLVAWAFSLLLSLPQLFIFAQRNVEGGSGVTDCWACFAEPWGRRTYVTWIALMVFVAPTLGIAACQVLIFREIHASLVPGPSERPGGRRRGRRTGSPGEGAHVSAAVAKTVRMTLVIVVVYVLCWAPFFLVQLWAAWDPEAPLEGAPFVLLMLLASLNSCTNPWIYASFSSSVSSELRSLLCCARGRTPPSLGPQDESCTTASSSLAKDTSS

molecule: C[C@H](N)[C@H](O)c1cccc(O)c1 [METARAMINOL]
AC50: > 10 µM
//
molecule: COc1cc2nc(N(C)CCCNC(=O)C3CCCO3)nc(N)c2cc1OC (stereo not given) [ALFUZOSIN]
AC50: > 30 µM
//
molecule: CC(=O)NCCCS(=O)(=O)O [ACAMPROSATE]
AC50: > 30 µM
//
molecule: CC1(C)NC(=O)N(c2ccc([N+](=O)[O-])c(C(F)(F)F)c2)C1=O [NILUTAMIDE]
AC50: > 30 µM

Then this molecule:
Problem: Provide value of AC50 for this record tested with Vasopressin V2 receptor (Homo sapiens, UniProt P30518): Nc1nc(Cl)nc2c1ncn2[C@H]1C[C@H](O)[C@@H](CO)O1 [CLADRIBINE]
Result: > 30 µM

---

# study.system: UniProt P35348
# Sequence (P35348 whole entry): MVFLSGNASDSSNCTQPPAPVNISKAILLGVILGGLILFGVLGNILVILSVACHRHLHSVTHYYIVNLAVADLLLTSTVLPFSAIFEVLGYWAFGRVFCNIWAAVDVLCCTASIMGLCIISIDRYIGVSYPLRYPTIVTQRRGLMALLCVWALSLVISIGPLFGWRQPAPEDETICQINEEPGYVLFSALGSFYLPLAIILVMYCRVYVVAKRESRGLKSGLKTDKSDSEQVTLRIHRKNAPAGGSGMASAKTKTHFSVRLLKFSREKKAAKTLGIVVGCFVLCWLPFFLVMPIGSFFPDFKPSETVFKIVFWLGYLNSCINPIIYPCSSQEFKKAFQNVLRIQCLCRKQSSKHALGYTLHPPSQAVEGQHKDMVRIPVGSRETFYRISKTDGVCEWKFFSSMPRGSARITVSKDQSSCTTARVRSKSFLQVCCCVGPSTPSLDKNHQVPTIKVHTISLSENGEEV
# Format: functional, cell-based
Parameter AC50: see the listing below.

Solved cases below.
molecule: CC1=C(C(=O)O)N2C(=O)[C@@H](NC(=O)[C@H](N)c3ccccc3)[C@H]2SC1 [CEPHALEXIN ANHYDROUS]
reading: > 30 µM
--
molecule: CCCC(C)C1(CC)C(=O)NC(=O)NC1=O (stereo unspecified)
reading: > 30 µM
--
molecule: CCOC(=O)[C@H](CCc1ccccc1)N[C@@H](C)C(=O)N1C(=O)N(C)C[C@H]1C(=O)O
reading: > 30 µM

Problem: Entry under review: COc1ccc(CCNCC(O)COc2cccc(C)c2)cc1OC (stereo unspecified) . Reported AC50?
Result: 12 µM

Problem: Entry under review: CCCCN1C[C@H](O)[C@@H](O)[C@H](O)[C@H]1CO . Reported AC50?
Result: > 30 µM

Problem: Entry under review: CC(C)C(=O)c1c(C(C)C)nn2ccccc12 . Reported AC50?
Result: > 30 µM
